# Protocol text: AUC (0 to infinity) in Wistar rat at 1.5 mg/kg, po
# Format: ADME, organism-based
# Parameters: time infinity, dose 1.5 mg/kg, route oral
# Experimental context: plasma
Reported property: AUC(0-inf) (ng·h/mL)
Give just the number in ng·h/mL; leave the unit off.

Ask: Request the reported AUC(0-inf) associated with COc1ccc(NC(=O)Nc2ccc(Cl)cc2)cc1-c1c(Cl)cnn1C
Reply: 478

----------
# Protocol text: Cmax in Wistar rat at 1.5 mg/kg, po
# Type: ADME, organism-based
# Parameters: dose 1.5 mg/kg, route oral
# Experimental context: in vivo
Reported property: Cmax (ng/mL)
Response body: numeric value in ng/mL, unit text excluded.

Ask: Returns the measured Cmax for the input molecule. Input: COc1ccc(NC(=O)Nc2ccc(Cl)cc2)cc1-c1c(Cl)cnn1C
Reply: 41

----------
# Target system: 5-hydroxytryptamine receptor 2C (Homo sapiens)
# Sequence (P28335 whole entry): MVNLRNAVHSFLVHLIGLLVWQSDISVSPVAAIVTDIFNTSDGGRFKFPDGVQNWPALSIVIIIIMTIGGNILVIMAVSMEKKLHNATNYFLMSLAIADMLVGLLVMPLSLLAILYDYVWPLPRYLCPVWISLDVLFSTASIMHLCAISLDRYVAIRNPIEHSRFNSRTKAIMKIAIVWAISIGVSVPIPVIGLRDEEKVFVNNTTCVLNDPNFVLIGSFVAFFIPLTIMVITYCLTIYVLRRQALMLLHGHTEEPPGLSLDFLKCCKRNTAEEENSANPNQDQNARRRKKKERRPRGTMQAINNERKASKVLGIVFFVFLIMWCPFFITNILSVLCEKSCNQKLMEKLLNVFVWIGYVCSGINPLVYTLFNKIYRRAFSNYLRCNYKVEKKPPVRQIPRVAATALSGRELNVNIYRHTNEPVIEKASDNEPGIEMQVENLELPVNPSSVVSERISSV
# Protocol text: Displacement of [125I]DOI from human recombinant 5HT2C receptor expressed in HEK293 cells by scintillation counting
pKi: −log10 of the molar value.
Would you mind labelling by pKi? At or over 7 is Satisfied, under is Not satisfied.

Solved entries:
[
  {
    "Item smiles": "COc1ccc(NC(=O)Nc2ccc(C(F)(F)F)cc2)cc1-c1c(Br)cnn1C",
    "Class name": "Satisfied"
  },
  {
    "Item smiles": "COc1ccc(NC(=O)Nc2cc(C(F)(F)F)cc(C(F)(F)F)c2)cc1-c1c(Br)cnn1C",
    "Class name": "Satisfied"
  },
  {
    "Item smiles": "COc1ccc(NC(=O)Nc2ccc(Cl)c(C(F)(F)F)c2)cc1-c1c(Br)cnn1C",
    "Class name": "Satisfied"
  }
]

Ask: # check: pKi of COc1ccc(NC(=O)Nc2ccccc2F)cc1-c1c(Br)cnn1C is greater than or equal to 7
Reply: Not satisfied

Ask: // inclusive: pKi at least 7? input: COc1ccc(NC(=O)Nc2ccc(N(C)C)cc2)cc1-c1c(Br)cnn1C
Reply: Not satisfied

Ask: Does the molecule COc1ccc(NC(=O)Nc2ccc(F)c(F)c2)cc1-c1c(F)cnn1C have recorded pKi that is 7 or more?
Reply: Not satisfied

Ask: Say whether COc1ccc(NC(=O)Nc2ccc(F)cc2)cc1-c1c(Br)cnn1C(C)C shows pKi of 7 or more.
Reply: Satisfied

Ask: Exam item: decide whether the reported pKi for COc1ccc(NC(=O)Nc2ccc(F)cc2)cc1-c1c(Br)cnn1C is at least 7.
Reply: Satisfied

Ask: Would you say COc1ccc(NC(=O)Nc2ccc(Br)cc2)cc1-c1c(Br)cnn1C shows pKi at minimum 7?
Reply: Satisfied

----------
# Target system: 5-hydroxytryptamine receptor 2A (Homo sapiens, UniProt P28223)
# Sequence (P28223 whole entry): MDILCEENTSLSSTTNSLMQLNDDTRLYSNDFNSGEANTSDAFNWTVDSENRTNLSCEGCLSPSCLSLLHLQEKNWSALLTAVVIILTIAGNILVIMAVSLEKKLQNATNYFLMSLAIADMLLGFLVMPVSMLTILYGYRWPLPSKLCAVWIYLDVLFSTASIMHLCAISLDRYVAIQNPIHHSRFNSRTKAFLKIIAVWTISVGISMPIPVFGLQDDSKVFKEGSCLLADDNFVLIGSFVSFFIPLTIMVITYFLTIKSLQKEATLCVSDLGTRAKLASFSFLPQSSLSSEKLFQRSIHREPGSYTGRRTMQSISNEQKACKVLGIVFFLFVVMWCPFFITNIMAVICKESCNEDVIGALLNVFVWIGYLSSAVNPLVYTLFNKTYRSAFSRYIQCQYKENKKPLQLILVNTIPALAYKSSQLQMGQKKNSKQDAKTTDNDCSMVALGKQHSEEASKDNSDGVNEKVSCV
# Protocol text: Displacement of [125I]DOI from human recombinant 5HT2A receptor expressed in HEK293 cells by scintillation counting
Each entry below carries its recorded Ki.
Form entry: enter the amount, then its unit.

Use the examples below as a reference point.
[
  {
    "Compound": "CC(C)Oc1ccc(NC(=O)Nc2ccc(Cl)cc2)cc1-c1c(Br)cnn1C",
    "Target system": "5-hydroxytryptamine receptor 2A (Homo sapiens, UniProt P28223)",
    "Ki": "0.316 nM"
  },
  {
    "Compound": "COc1ccc(NC(=O)Nc2ccc(C(F)(F)F)cc2)cc1-c1c(Br)cnn1C",
    "Target system": "5-hydroxytryptamine receptor 2A (Homo sapiens, UniProt P28223)",
    "Ki": "0.316 nM"
  },
  {
    "Compound": "COc1ccc(NC(=O)Nc2cc(F)cc(F)c2)cc1-c1c(Br)cnn1C",
    "Target system": "5-hydroxytryptamine receptor 2A (Homo sapiens, UniProt P28223)",
    "Ki": "0.316 nM"
  },
  {
    "Compound": "COc1ccc(NC(=O)Nc2ccc(F)cc2F)cc1-c1c(Cl)cnn1C",
    "Target system": "5-hydroxytryptamine receptor 2A (Homo sapiens, UniProt P28223)",
    "Ki": "0.631 nM"
  },
  {
    "Compound": "COc1ccc(NC(=O)Nc2cccc(C(F)(F)F)c2)cc1-c1c(Br)cnn1C",
    "Target system": "5-hydroxytryptamine receptor 2A (Homo sapiens, UniProt P28223)",
    "Ki": "0.398 nM"
  },
  {
    "Compound": "COc1ccc(NC(=O)Nc2ccc(F)cc2F)cc1-c1c(Br)cnn1C [NELOTANSERIN]",
    "Target system": "5-hydroxytryptamine receptor 2A (Homo sapiens, UniProt P28223)",
    "Ki": "0.631 nM"
  },
  {
    "Compound": "COc1ccc(NC(=O)Nc2ccc(C(C)C)cc2)cc1-c1c(Br)cnn1C",
    "Target system": "5-hydroxytryptamine receptor 2A (Homo sapiens, UniProt P28223)",
    "Ki": "0.316 nM"
  },
  {
    "Compound": "COc1ccc(NC(=O)Nc2ccc(Cl)c(C(F)(F)F)c2)cc1-c1c(Br)cnn1C",
    "Target system": "5-hydroxytryptamine receptor 2A (Homo sapiens, UniProt P28223)",
    "Ki": "0.316 nM"
  }
]

Ask: Fill in: Ki of Cn1ncc(Br)c1-c1cc(NC(=O)Nc2ccc(Cl)cc2)ccc1O is ___
Reply: 0.398 nM

Ask: Consider the compound Cn1ncc(Br)c1-c1cc(NC(=O)Nc2ccc(Cl)cc2)ccc1OCCc1ccccc1 and give its measured Ki.
Reply: 6.31 nM

Ask: Can you share its Ki? I mean this compound: COc1ccc(NC(=O)Nc2cccc(F)c2)cc1-c1c(Br)cnn1C
Reply: 0.316 nM

Ask: Name the recorded Ki for COc1ccc(NC(=O)Nc2cc(C(F)(F)F)cc(C(F)(F)F)c2)cc1-c1c(Br)cnn1C .
Reply: 0.398 nM

----------
# Protocol text: Half life in Wistar rat at 1.5 mg/kg, po
# Format: ADME, organism-based
# Parameters: dose 1.5 mg/kg, route oral
# Experimental context: in vivo
Reported property: half-life (h)
Numeric only. Scale: h

Ask: Please look up its half-life: COc1ccc(NC(=O)Nc2ccc(Cl)cc2)cc1-c1c(Cl)cnn1C
Reply: 5

----------
# Protocol text: Tmax in Wistar rat at 1.4 mg/kg, po
# Type: ADME, organism-based
# Parameters: dose 1.4 mg/kg, route oral
# Experimental context: in vivo
Reported property: Tmax (h)
Lab book: enter the figure in h, no units written.

Ask: If you can, please state the reported Tmax value of COc1ccc(NC(=O)Nc2ccc(F)cc2)cc1-c1c(Br)cnn1C .
Reply: 4

Ask: Using the record for COc1ccc(NC(=O)Nc2ccc(F)cc2F)cc1-c1c(Br)cnn1C , report its Tmax.
Reply: 3

----------
# Protocol text: Half life in Wistar rat at 1.4 mg/kg, po
# Type: ADME, organism-based
# Design: dose 1.4 mg/kg, route oral
# Experimental context: in vivo
Each record here notes measured half-life.

[
  {
    "Item smiles": "COc1ccc(NC(=O)Nc2ccc(F)cc2F)cc1-c1c(Br)cnn1C",
    "half-life": "3 h"
  }
]

Proceeding to the next compound to report its half-life.
Ask: Fill blank: measured half-life of the compound COc1ccc(NC(=O)Nc2ccc(F)cc2)cc1-c1c(Br)cnn1C is ____.
Reply: 2 h

----------
# Protocol text: Tmax in Wistar rat at 1.0 mg/kg, po
# Format: ADME, organism-based
# Parameters: dose 1 mg/kg, route oral
# Experimental context: in vivo
Reported property: Tmax (h)
Numeric only. Scale: h

Ask: Field request: Tmax | item: COc1ccc(NC(=O)Nc2ccc(Cl)cc2)cc1-c1c(Br)cnn1C
Reply: 3

----------
# Target system: UniProt P28223
# Protocol text: Activity at human 5HT2A receptor expressed in HEK293 cells assessed as [3H]inositol phosphate production by scintillation counting
# Format: functional, cell-based
# Experimental context: read-out: pIC50 (converted)
Reported property: IC50 (nM)
Number only, in nM; omit the unit.

[
  {
    "Item smiles": "COc1ccc(NC(=O)Nc2cccc(F)c2)cc1-c1c(Br)cnn1C",
    "Units text": "nM",
    "IC50": 0.794
  },
  {
    "Item smiles": "COc1ccc(NC(=O)Nc2ccc(Cl)cc2Cl)cc1-c1c(Br)cnn1C",
    "Units text": "nM",
    "IC50": 1.26
  },
  {
    "Item smiles": "Cn1ncc(Br)c1-c1cc(NC(=O)Nc2ccc(Cl)cc2)ccc1OCc1ccccc1",
    "Units text": "nM",
    "IC50": 7.94
  },
  {
    "Item smiles": "COc1ccc(NC(=O)Nc2cccc(C#N)c2)cc1-c1c(Br)cnn1C",
    "Units text": "nM",
    "IC50": 6.31
  },
  {
    "Item smiles": "COc1ccc(NC(=O)Nc2ccc(F)c(F)c2)cc1-c1c(F)cnn1C",
    "Units text": "nM",
    "IC50": 2.51
  },
  {
    "Item smiles": "COc1ccc(NC(=O)Nc2ccc(F)c(F)c2)cc1-c1c(Cl)cnn1C",
    "Units text": "nM",
    "IC50": 0.501
  },
  {
    "Item smiles": "Cn1ncc(Br)c1-c1cc(NC(=O)Nc2ccc(Cl)cc2)ccc1OCCc1ccccc1",
    "Units text": "nM",
    "IC50": 50.1
  },
  {
    "Item smiles": "COc1ccc(NC(=O)Nc2ccc(F)cc2)cc1-c1c(Br)cnn1C",
    "Units text": "nM",
    "IC50": 0.251
  },
  {
    "Item smiles": "COc1ccc(NC(=O)Nc2ccc(Cl)cc2)cc1-c1c(Br)cnn1C",
    "Units text": "nM",
    "IC50": 0.794
  },
  {
    "Item smiles": "COc1ccc(NC(=O)Nc2ccc(F)cc2)cc1-c1c(Br)cnn1C(C)C",
    "Units text": "nM",
    "IC50": 1
  }
]

Ask: Which IC50 reading was recorded for the compound COc1ccc(NC(=O)Nc2ccc(Cl)cc2)cc1-c1c(Cl)cnn1C ?
Reply: 0.501

Ask: Which value of IC50 has been reported for COc1ccc(NC(=O)Nc2ccc(Cl)c(C(F)(F)F)c2)cc1-c1c(Br)cnn1C in the records?
Reply: 0.794

Recorded values, source ChEMBL document CHEMBL1157565.
